Assay: label from the status in PepcDB records
quantity: protein production

### Prompt For the sequence MIQLKNVGITLSGKGYERFSLENINLEVNGEKVIILGPNGSGKTTLLRAISGLLPYSGNIFINGMEVRKIRNYIRYSTNLPEAYEIGVTVNDIVYLYEELKGLDRDLFLEMLKALKLGEEILRRKLYKLSAGQSVLVRTSLALASQPEIVGLDEPFENVDAARRHVISRYIKEYGKEGILVTHELDMLNLYKEYKAYFLVGNRLQGPISVSELLESSIVEGERNDALLVLDIMDKKVSIVKGDLGMKFGALGSLNRIYGIIGA , what protein production is on record?
### Response not failed

### Prompt For the sequence MSLSAQADARPTPAPSFSGVTVDGKPFSSASLKGKAYIVNFFATWCPPCRSEIPDMVQVQKTWASRGFTFVGIAVNEQLPNVKNYMKTQGIIYPVMMATPELIRAFNGYIDGGITGIPTSFVIDASGNVSGVIVGPRSKADFDRIVKMALGAKAATKEGHHHHHH , what protein production is on record?
### Response not failed

### Prompt For the sequence MPNELSRSLSPYLLMHANDPVEWRMWSKETLRIATEENRLIFLSIGYSSCHWCHVMHEESFVDPDVAEILNNNYIPVKVDREERPDLDSYFMKVSQVINGNGGWPLNIILLPDARPVFAMTYVPKEDRNGMTGLKTILIQLSQMYLKDPDQFKDQAKAVSDAMEERESV , what protein production is on record?
### Response not failed

====

Assay: label from the status in PepcDB records
quantity: protein production

### Prompt For the sequence MTGLSQSQASPMQIQPGNAAFNPWTDAALDTIRDVNQALTLYAEMRVVPAHHDAFLAAIDTVSAKLRVLPGFLSLALKQMSGDSTMVKNYPETYKGVLATAYLDGVAAGTQPYFYNLFVRFADGRAARAAGFEALFETHIHPLLHAMAPRGGDGPELLAYRAVLQSVVAGDRHAIYRGAEEIRSFLRRPVELPERETVTVENHVMVPEDKHAAWEPQVAILLQVAQDTFEPQDEPSGVGLPGARDNRYYRKALSTEILRNAHADGGLRAYIMHGVWESVWDHENSHLDPRFLAAAGPVGAAAVVGPVEPFYLTRRLVVAD , what protein production is on record?
### Response not failed

### Prompt For the sequence MITSNLFDLRRWRANMSAMRFFALTSAALPLALMLLTSSFPAAAAEKSAAATKKDVIVEQADANNSPKQHLDQLFSQLKRERDPEKASGIANEIRMEWNDSGSATVNLLMQWADKAIEEKRNPAALDFLDEAIALKPDYAESWNRRATLNFVMGNYRKSMSDIERVLDLEPRHFGALSGMAAILSNSGNDQLTLKAWERFLDIYPAERTAQEQANTLAEKLAGNRT , what protein production is on record?
### Response failed

### Prompt For the sequence MSMLKKTKEFFGLAPYEAEHEDAYYADEPRYEGTAAYAPEYRERDYGYAPEAPAPVAPSPAPRSYQSTIVPVELHSFEDAQVIGGAFRDGDAVVFDMSLLSREEARRIVDFAAGLCFALRGKMQKIDSVTFAVVPELSNISTSELERAARIRLEHHHHHH , what protein production is on record?
### Response not failed

### Prompt For the sequence NVYDLANELERAVRALPEYQAVLTAKSAIESDADAQVLWQDFLATQSKVQEMMQSGQMPSQEEQDEMSKLGEKIESNDLLKVYFDQQQRLSVYMSDIEKIVFAPMQDL , what protein production is on record?
### Response not failed

### Prompt For the sequence MNYDDPKKKVGRNIKRLRLKAGIKSQAALAELCGWKSQSRVGNYEAGTRAVSAIDAETLAKVLNVTPAEILYGENNKDDDFVSMPSAQYSSGPYEEEDPFQLFKPKQELQNAEWHAGFELWDGDTPLRDDEVALPFYREVELAAGSGSTFVQENGGCKLRFAKSTLKKSRVEPSNAACVTVSGNSMLPVLRHGTTVGVDTSKKSIIDGEMYAIDHDGMLRVKMLYRTPGGGIRIKSYNNDEFPDEFIPPEKASDIKIIGWVFWWSVLNVWNN , what protein production is on record?
### Response failed

### Prompt For the sequence MVVDSVTMEEEDTKEEAAMVATEGEDTKEEEDDTKEAVGDKEEGEVTAATAAATKVTMAAQGVVHMPEKRFRLSLVTKST , what protein production is on record?
### Response failed

---
### Prompt For the sequence MDNPCPTCGQELEWTGQYHCSACTVDYCKVGFCPECGSELEKLQACGAANYFCNQCNELKSKSKIRFVFQPLNGNSQLEHHHHHH , what protein production is on record?
### Response not failed

### Prompt For the sequence MEAVLNELVSVEDLKNFERKFQSEQAAGSVSKSTQFEYAWCLVRSKYNEDIRRGIVLLEELLPKGSKEEQRDYVFYLAVGNYRLKEYEKALKYVRGLLQTEPQNNQAKELERLIDKAMKK , what protein production is on record?
### Response not failed

These entries and their values trace back to a protein production outcome set (Wang et al. 2014).
